These data points were gathered from PubChem BioAssay (NCI).

Test system: SN12C renal
Assay: NCI-60 one-dose screen, 48 h
Settings: 10 µM
Description: Growth inhibition of the SN12C human tumor cell line is measured as a screen for anti-cancer activity. Cells are grown in 96 well plates and exposed to the test compound for 48 hours. Compounds are tested at a single concentration, which is 10^-5 M for most compounds. The reported endpoint is percent growth (GI% or GIPRCNT), where numbers from 0 - 100% represent growth inhibition, and numbers from -100% - 0 represent cell death. For example, a value of 40 represents 60% growth inhibition. […]
This is part of a sample that, as a whole, favours compounds with a hit. Of some 83,000 tested, about 20% had one in any assay. The source made the active and inactive calls. Rule for the calls: active = growth percent below 10; inactive = the rest.
Would you mind answering with one of these outcomes? active, inactive

Task: // return assay outcome for COc1ccc(-c2nn(-c3cccc(Cl)c3)cc2-c2c(C#N)c(=O)n3[nH]c(-c4ccccc4)nc3c2C#N)cc1
Result: inactive

Task: Please state the recorded outcome for this molecule: OCC1OC(n2cnc3c(NCc4ccco4)ncnc32)C(O)C1O (stereo unspecified)
Result: active

Task: For Cc1c(Cl)cccc1NC(=O)CCCl , what call appears in the results of this test?
Result: inactive

Task: What was the test verdict on COc1cc(-c2nn(-c3ccc(NC(=O)NCCCNC(=O)c4ccccc4)cc3)cc2-c2ccncc2)ccc1Cl ?
Result: inactive

Task: What was the test verdict on Cc1cn(-c2cccc(NC(=O)c3ccc(C)c(Nc4nccc(-c5cccnc5)n4)c3)c2)cn1 ?
Result: active

Task: I'd appreciate the recorded outcome for O=C(N/N=C/c1c(Cl)cccc1Cl)c1ccccc1Nc1cccc(C(F)(F)F)c1 from this test.
Result: inactive

Task: What did the test return for CCOC(=O)c1cc(C(=O)c2cc(OC)c(OC)c(OC)c2)n2ncc3ccccc3c12 ?
Result: inactive

Task: How was CCN(CC)c1ccc(/C=C2\SC(=O)C(Nc3nnc(-c4cccnc4SCc4ccccc4)o3)C2=O)cc1 (stereo unspecified) classified in this test?
Result: inactive

Task: What classification did N#Cc1cnn(C(=O)c2nn(-c3ccc(Cl)cc3)cc2O)c1N end up with in this test?
Result: inactive

Task: Which result was noted for this molecule in the test: O=S(=O)(Oc1ccc(-c2ccc3sccc3c2)cc1)c1ccccc1
Result: inactive

Task: For this molecule, state the assay outcome: Cc1ccc(C(=O)/C=C/c2ccccc2)s1
Result: inactive

Task: Which outcome was assigned to CCN1CCN(CCC(=O)Nc2cccc(-n3cc(-c4ccncc4)c(-c4ccc(Cl)c(OC)c4)n3)c2)CC1 in this test?
Result: inactive

Task: So what was the verdict on O=C(O)c1ccc(-n2cc(CNc3ccc(Cl)cc3)c(-c3ccccc3)n2)cc1 in this test?
Result: inactive

Task: Identify the outcome logged in this assay for the molecule shown: CCOC(=O)CN(c1sc(C)c(C)c1C(=O)OCC)S(=O)(=O)c1ccc(C)cc1
Result: inactive

Task: I would be grateful if you could indicate the recorded call for COc1cc2c3c(n(C4CCN(C)CC4)c(=O)c2cc1OC)-c1cc2c(cc1C3=O)OCO2 .
Result: inactive

Task: Call for entry Cc1ccc(NC(=O)N2CCCCC2)cc1[N+](=O)[O-] :
Result: inactive

Task: Which outcome was entered for the molecule COc1cc(C(=O)/C(C)=C/c2c[nH]c3ccccc23)cc(OC)c1OC in this test?
Result: inactive

Task: Query: recorded result category for COCCn1cc(-c2nc(-c3cccnc3)cs2)c2cc(F)ccc21 in this test
Result: inactive

Task: Check the results log: what was the call for CC(=O)Nc1ccc(S(=O)(=O)c2ccnc3cc(Cl)ccc23)cc1 ?
Result: inactive

Task: Tell me the assay call for COc1ccccc1/C=N\N/C(N)=N\N=C\c1ccccc1OC please.
Result: inactive

Task: Lab log entry: Cc1cc(Cl)ccc1Nc1nc(C(F)(F)F)ccc1C(=O)N/N=C/c1c(Cl)cccc1Cl — outcome as called in the assay?
Result: active
